Tested on: SN12C renal
procedure.details: NCI-60 one-dose screen, 48 h (100 = growth as untreated, 0 = no growth, -100 = all killed)
assay.context: 10 µM unless noted
Compounds without any hit were thinned out: in the full panel of roughly 83,000, 20% have a hit.
Catalogue of growth values
observed.property: growth (%)

compound | observed.property | meas.value
O=C1C=CC2(NN=C(c3ccccc3)N2c2ccccc2)c2cccc(O)c21 (stereo unspecified) | growth | 7.23
CCN1CCN(Cc2ccc(Cc3ncc(F)c(-c4cc(F)c5nc(C)n(C(C)C)c5c4)n3)nc2)CC1 | growth | 48.9
CCN(CCN(C)C)C(=O)CNCc1cc(C(N)=O)ccn1 | growth | 98.8
COc1cnc2c(c1)C(=O)c1c-2n(CCCN2CCC(O)CC2)c(=O)c2cc(Cl)ccc12 | growth | 30.5
COC(=O)CNC(=O)[C@@H](OC)[C@@H]1Cc2cc3cc(OC4CC(OC5CC(O)C(O)C(C)O5)C(O)C(C)O4)c(C)c(O)c3c(O)c2C(=O)[C@H]1OC1CC(OC2CC(OC3CC(C)(O)C(O)C(C)O3)C(O)C(C)O2)C(O)C(C)O1 (stereo partly specified) | growth | 13.7
CCCC(=O)OCC1OC(n2cnc3c(=S)nc[nH]c32)C(OC(=O)CCC)C1OC(=O)CCC (stereo unspecified) | growth | 49.9
Cc1cc(Nc2ncnc3ccc(NC4=NC(C)(C)CO4)cc23)ccc1Oc1ccn2ncnc2c1 | growth | 33.1
COC[C@@H](C)n1c(C2CCOCC2)nc2c1C1C=C(OC)C(c3c(C)noc3C)=CC1N=C2 (stereo partly specified) | growth | 64.9
CNC(=O)c1ccccc1Nc1nc(Nc2ccc3c(c2OC)CCC[C@H](N2CCN(CCO)CC2)C3)ncc1Cl | growth | 7.63
COC(=O)CC[C@@H](C)[C@H]1CC[C@H]2C3CC[C@@H]4C[C@@H]5CC[C@]4(C)[C@@]3(O5)[C@H](Br)[C@@H](Br)[C@]12C (stereo partly specified) | growth | 98.1
CCN(CC)CCNc1ccc(N=Nc2cnc3ccccc3c2)c2ccccc12 | growth | -88.9
